target: recombinant alpha-glucosidase from Saccharomyces cerevisiae, which is a maltase (Saccharomyces cerevisiae); test: cell-based or functional assay
Give measured Inhibitory activity on α-glucosidase (IC50) for each item. Keep answers brief.
Express your answer in mM, writing the number without its unit.

Query :: Please look up its Inhibitory activity on α-glucosidase (IC50): IY [IY peptide]
Result :: 12.3

Query :: Please look up its Inhibitory activity on α-glucosidase (IC50): VAP [VAP peptide]
Result :: 0.02

Query :: Please look up its Inhibitory activity on α-glucosidase (IC50): KY [KY peptide]
Result :: 11

Query :: Please look up its Inhibitory activity on α-glucosidase (IC50): LKP [LKP peptide]
Result :: 7.11

Query :: Please look up its Inhibitory activity on α-glucosidase (IC50): AP [AP peptide]
Result :: 0.0136

Query :: Please look up its Inhibitory activity on α-glucosidase (IC50): VY [VY peptide]
Result :: 2.7

Query :: Please look up its Inhibitory activity on α-glucosidase (IC50): GPL [GPL peptide]
Result :: 4.82

Query :: Please look up its Inhibitory activity on α-glucosidase (IC50): KW [KW peptide]
Result :: 12.8
